# assayed-system: 5-hydroxytryptamine receptor 1A (Homo sapiens, UniProt P08908)
# Sequence (P08908 whole entry): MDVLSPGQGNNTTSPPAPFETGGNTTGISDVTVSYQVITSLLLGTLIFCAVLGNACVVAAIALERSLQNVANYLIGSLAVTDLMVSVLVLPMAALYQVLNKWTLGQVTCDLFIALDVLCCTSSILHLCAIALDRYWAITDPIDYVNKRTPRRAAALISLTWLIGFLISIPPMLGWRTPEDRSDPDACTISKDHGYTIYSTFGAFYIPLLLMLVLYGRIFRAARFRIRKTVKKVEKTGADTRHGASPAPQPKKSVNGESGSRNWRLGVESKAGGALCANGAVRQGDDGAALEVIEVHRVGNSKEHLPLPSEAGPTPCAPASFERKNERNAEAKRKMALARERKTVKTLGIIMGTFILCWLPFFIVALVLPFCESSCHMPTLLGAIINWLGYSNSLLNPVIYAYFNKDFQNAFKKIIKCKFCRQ
# test-description: Displacement of [3H]8- OH-DPAT from human 5-HT1A by CEREP assay
# measurement-parameters: read-out: Ki(app)
pKi: −log10 of the molar value.

# smiles-code, pKi
measured = [
    ("CCCN1CCC(n2c(=O)[nH]c3cc(Cl)ccc32)CC1", 5.24),
]
